- ASSAYED SYSTEM: UniProt P01375
- TEST METHOD NOTES: TNF induced HEK-Blue assay (NF-kB-driven secreted alkaline phosphatase reporter)
- Format: cell-based
- EXPERIMENTAL CONDITIONS: TNFα 0.5 ng/mL, HEK-Blue-CD40L cells, 18 h; read-out: TNF induced HEK-Blue assay IC50 value
Please respond with reported IC50 for every item in the list.

Solved entries (count: 3):
{"columns": ["COMPOUND", "IC50"],
 "data": [
  ["C[C@@H](Nc1c(Cl)cnc2ccc(-c3ccc(N4CCN(CC(=O)O)C(=O)C4)nc3)cc12)c1ccccc1F", "1 to 10 µM"],
  ["C[C@@H](Nc1c(Cl)cnc2ccc(-c3cnc(N4CCNC(=O)C4)nc3)cc12)c1ccccc1F", "< 1 µM"],
  ["CC(Nc1c(Cl)cnc2cc(F)c(-c3cnc(C(O)CO)nc3)cc12)c1ccccc1F (single isomer, unassigned) [Example 597]", "1 to 10 µM"]
]}

Go through the list and state IC50 for each entry.
1. C[C@@H](Nc1c(Cl)cnc2ccccc12)c1cc(CCCO)ccc1F
2. C[C@@H](Nc1c(Cl)cnc2cc(F)c(-c3cnc(N4CCC(C(=O)O)C4)nc3)cc12)c1ccccc1F (mixture of isomers)
3. Cc1nc2ccc(-c3cnc(C(C)(C)O)nc3)cc2c(N[C@H](C)c2cc(C(C)O)ccc2F)c1Cl (mixture of isomers)
4. Cc1nc2ccc(-c3cnc(C(C)(C)O)nc3)cc2c(N[C@H](C)c2cc(Cl)ccc2F)c1Cl
5. CC(Nc1c(Cl)cnc2c(Cl)cc(-c3cnn(C)c3)cc12)c1ccccc1F (racemic)
6. CC(Nc1c(Cl)cnc2c(Cl)cc(Br)cc12)c1ccccc1F (racemic)
7. O=C(O)CN1CCN(c2ccc(-c3ccc4ncc(Cl)c(N[C@@H](c5ccccc5F)C(F)F)c4c3)cc2)CC1

1: 1 to 10 µM; 2: 1 to 10 µM; 3: < 1 µM; 4: < 1 µM; 5: 10 to 25 µM; 6: 10 to 25 µM; 7: < 1 µM

Go through the list and state IC50 for each entry.
1. C[C@@H](Nc1c(Cl)cnc2cc(F)c(-c3cnc(C(C)(C)O)nc3)nc12)c1cccc(C(O)CO)c1 (some centres unmarked)
2. CN(C)CC(Nc1c(Cl)cnc2ccc(-c3cnc(C(C)(C)O)nc3)cc12)c1ccccc1F (racemic)
3. O=C(O)CNCc1ccc(-c2ccc3ncc(Cl)c(N[C@@H](c4ccccc4F)C(F)F)c3c2)cc1
4. CC(Nc1c(Cl)cnc2cc(F)c(-c3cnc(N4CCC(C(=O)O)CC4)nc3)cc12)c1ccccc1F (single isomer, unassigned)

1. < 1 µM
2. 1 to 10 µM
3. 10 to 25 µM
4. < 1 µM

----------
- ASSAYED SYSTEM: UniProtKB P01375
- TEST METHOD NOTES: TNF induced HEK-Blue assay (NF-kB-driven secreted alkaline phosphatase reporter)
- Format: cell-based
- EXPERIMENTAL CONDITIONS: TNFα 0.5 ng/mL, HEK-Blue-CD40L cells, 18 h; read-out: TNF induced HEK-Blue assay IC50 value
pIC50: −log10 of the molar value.
QUANTITY MEASURED: pIC50

Solved entries (count: 6):
{"columns": ["COMPOUND", "ASSAYED SYSTEM", "RECORDED VALUE"],
 "data": [
  ["CC(C)(O)c1ncc(-c2nc3c(N[C@@H](c4cc(C(O)CO)ccc4F)C(F)F)c(Cl)cnc3cc2F)cn1 (some centres unmarked)", "UniProtKB P01375", "> 6.00"],
  ["C[C@@H](Nc1c(Cl)cnc2ccccc12)c1cc(-c2ccc(N)nc2)ccc1F", "UniProtKB P01375", "> 6.00"],
  ["CC(Nc1c(Cl)cnc2ccc(-c3cnc(C(C)(C)O)nc3)cc12)[C@@H]1CCCN(C(=O)OC(C)(C)C)C1 (mixture of isomers)", "UniProtKB P01375", "5.00 to 6.00"],
  ["Cc1ccc(C)c(C(C)Nc2c(Cl)cnc3ccc(-c4cnc(C(C)(C)O)nc4)cc23)c1 (racemic)", "UniProtKB P01375", "5.00 to 6.00"],
  ["C[C@H](Nc1c(Cl)cnc2ccc(-c3cnc(C(C)(C)O)nc3)cc12)[C@H]1CCCN(S(C)(=O)=O)C1", "UniProtKB P01375", "5.00 to 6.00"],
  ["CC(C)(O)c1ncc(-c2nc3c(N[C@@H](c4cc(CO)ccc4F)C(F)F)c(Cl)cnc3cc2F)cn1", "UniProtKB P01375", "> 6.00"]
]}

Go through the list and state pIC50 for each entry.
1. Cc1nc2ccc(-c3cnc(C(C)(C)O)nc3)cc2c(N[C@@H](c2cc(Br)ccc2F)C(F)F)c1Cl
2. C=CCOc1ccc(F)c([C@@H](C)Nc2c(Cl)cnc3ccccc23)c1
3. C[C@@H](Nc1c(Cl)cnc2ccc(-c3cnc(C(C)(C)O)nc3)cc12)c1cc(C2=CCN(C(=O)OC(C)(C)C)CC2)ccc1F
4. CC(Nc1c(Cl)cnc2cc(F)c(-c3cnc(N4CCN(C(=O)CCC(=O)O)CC4)nc3)cc12)c1ccccc1F (single isomer, unassigned)
5. Cc1nc2ccccc2c(N[C@H](C)c2cc(-c3cncnc3)ccc2F)c1Cl
6. COc1cc(-c2ccc(F)c([C@@H](C)Nc3c(Cl)cnc4ccccc34)c2)c(F)cn1
7. Cc1nc2ccc(-c3cnc(C(C)(C)O)nc3)cc2c(N[C@H](C)c2cc(Cc3ccccc3)ccc2F)c1Cl
8. CC(C)(O)c1ncc(-c2cc3c(NC4(c5ccccc5F)CC4)c(Cl)cnc3cc2F)cn1

1: > 6.00; 2: 5.00 to 6.00; 3: 5.00 to 6.00; 4: > 6.00; 5: > 6.00; 6: 5.00 to 6.00; 7: > 6.00; 8: > 6.00

Go through the list and state pIC50 for each entry.
1. Cc1nc2cc(F)c(-c3cnc(C(C)(C)O)nc3)cc2c(N[C@H](C)c2cc(CCC(N)=O)ccc2F)c1Cl
2. CC(Nc1c(Cl)cnc2cc(F)c(-c3cnc(C(C)(O)CO)nc3)cc12)c1ccccc1F (centres unmarked) [Example 259]
3. Cc1nc2ccc(-c3cnc(C(C)(C)O)nc3)cc2c(N[C@H](C)c2cccc(OCC(=O)O)c2)c1Cl
4. C[C@@H](Nc1c(Cl)cnc2ccc(Cl)cc12)c1cc(-c2cncnc2)ccc1F
5. C[C@@H](Nc1c(Cl)cnc2ccc(-c3cnc(C(C)(C)O)nc3)cc12)c1cccc(-n2cccn2)c1
6. C[C@@H](Nc1c(Cl)cnc2ccc(-c3cnc(C(C)(C)O)nc3)cc12)c1cc(C=NO)ccc1F

1: > 6.00; 2: 4.60 to 5.00; 3: 5.00 to 6.00; 4: > 6.00; 5: 4.60 to 5.00; 6: > 6.00

Go through the list and state pIC50 for each entry.
1. C[C@@H](Nc1c(Cl)c(C(=O)Nc2cccnc2)nc2ccc(-c3cnc(C(C)(C)O)nc3)cc12)c1cc(C(N)=O)ccc1F
2. C=Cc1ccc(F)c([C@@H](C)Nc2c(Cl)c(C)nc3cc(F)c(-c4cnc(C(C)(C)O)nc4)nc23)c1

["5.00 to 6.00", "5.00 to 6.00"]

----------
- ASSAYED SYSTEM: TNFα (Homo sapiens)
- Sequence (P01375 77-233 limits assumed): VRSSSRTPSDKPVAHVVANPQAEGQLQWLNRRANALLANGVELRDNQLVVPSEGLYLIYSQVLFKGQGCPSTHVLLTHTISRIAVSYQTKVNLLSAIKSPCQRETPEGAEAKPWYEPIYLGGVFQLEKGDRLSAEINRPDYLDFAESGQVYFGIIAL
- TEST METHOD NOTES: TNF induced HEK-Blue assay (NF-kB-driven secreted alkaline phosphatase reporter)
- Type: cell-based
- EXPERIMENTAL CONDITIONS: TNFα 0.5 ng/mL, HEK-Blue-CD40L cells, 18 h; read-out: TNF induced HEK-Blue assay IC50 value
pIC50: −log10 of the molar value.
QUANTITY MEASURED: pIC50

Solved entries (count: 5):
{"columns": ["COMPOUND", "pIC50"],
 "data": [
  ["CCCC(C)C(N)c1c(Cl)c(C)nc2ccc(-c3cnc(C(C)(C)O)nc3)cc12 (single isomer, unassigned) [Example 358]", "4.60 to 5.00"],
  ["Cc1ccc(C)c(Nc2c(Cl)c(N)nc3ccc(-c4cnc(N5CCN(CC(=O)O)CC5)nc4)cc23)c1 [Example 45]", "> 6.00"],
  ["C=Cc1ccc(F)c(C(CC)Nc2c(Cl)cnc3ccc(-c4cnc(C(C)(C)O)nc4)cc23)n1 (racemic) [Example 126]", "> 6.00"],
  ["C[C@@H](Nc1c(Cl)cnc2ccc(-c3cnc(NCC(N)=O)nc3)cc12)c1ccccc1F [Example 585]", "4.60 to 5.00"],
  ["CC(Nc1c(Cl)cnc2c(Cl)cc(-c3cnc(N4CCNC(=O)C4)nc3)cc12)c1ccccc1F (racemic) [Example 18]", "5.00 to 6.00"]
]}

Go through the list and state pIC50 for each entry.
1. CCC(Nc1c(Cl)cnc2ccc(-c3cnc(C(C)(C)O)nc3)cc12)c1nc(C(N)=O)ccc1F (stereo not shown) [Example 129]
2. CC(C)(O)c1ncc(-c2cc(F)c3ncc(Cl)c(N[C@@H](c4ccccc4F)C(F)F)c3c2)cn1 [Example 297]

1: > 6.00; 2: > 6.00
